From: patent US20220204539A1

# TARGET OR TEST SYSTEM: Recombinant Human 5′-Nucleotidase (CD73) (Homo sapiens, UniProt P21589)
# Construct: CHO derived CD73 (Trp27-Lys547), with a C-terminal 6-His tag; 6-His (C); purchased R&D 5795-EN; host or cells: CHO
# Sequence (P21589 27-547): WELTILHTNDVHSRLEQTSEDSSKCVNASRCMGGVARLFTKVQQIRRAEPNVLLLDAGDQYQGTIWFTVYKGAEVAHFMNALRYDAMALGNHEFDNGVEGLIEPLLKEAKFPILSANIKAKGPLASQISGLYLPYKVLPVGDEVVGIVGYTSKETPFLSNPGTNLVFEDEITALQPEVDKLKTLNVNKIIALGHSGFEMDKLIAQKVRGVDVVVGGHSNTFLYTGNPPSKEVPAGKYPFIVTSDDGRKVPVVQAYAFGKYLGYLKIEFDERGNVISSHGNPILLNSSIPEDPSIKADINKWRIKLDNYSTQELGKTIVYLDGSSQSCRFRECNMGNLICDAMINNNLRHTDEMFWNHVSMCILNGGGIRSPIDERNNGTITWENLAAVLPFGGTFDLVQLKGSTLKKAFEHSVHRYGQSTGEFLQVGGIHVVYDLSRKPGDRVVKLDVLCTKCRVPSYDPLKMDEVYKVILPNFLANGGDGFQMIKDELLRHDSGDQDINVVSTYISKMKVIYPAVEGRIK
# EXPERIMENT: CD73 Enzyme Assay
# Type: biochemical
# TEST CONDITIONS: human CD73 0.5 nM, AMP 30 μM, PiColorLock phosphate detection; read-out: Potency (IC50, CD73 enzyme assay)
Reported IC50 values for a set of molecules

Below are worked cases with known answers.
O=P(O)(O)CP(=O)(O)OC[C@H]1OC(c2cnc3c(N4CCCC4)nc(Cl)nn23)[C@@H](F)[C@@H]1O (stereo partly shown) [Compound 73]    10 to 99 nM
C[C@H](Nc1nc(Cl)nn2c([C@@H]3O[C@H](COP(=O)(O)CP(=O)(O)O)[C@@H](O)[C@H]3O)cnc12)c1ccc(F)cc1 [Compound 37]    < 10 nM
O=P(O)(O)CP(=O)(O)OC[C@H]1O[C@@H](c2cnc3c(NC4CCC(F)(F)CC4)nc(Cl)nn23)[C@H](O)[C@@H]1O [Compound 48]    < 10 nM
CO[C@H]1CC[C@H](Nc2nc(Cl)nn3c([C@@H]4O[C@H](COP(=O)(O)CP(=O)(O)O)[C@@H](O)[C@H]4O)cnc23)CC1 [Compound 17]    < 10 nM
COP(=O)(CP(=O)(OC)OC[C@H]1O[C@@H](c2cnc3c(N4CC5CCCC5C4)nc(Cl)nn23)[C@@H](F)[C@@H]1O)OC (stereo partly shown) [Compound 76]    > 1000 nM
C[C@H](Nc1nc(Cl)nn2c([C@@H]3O[C@H](COP(=O)(O)CP(=O)(O)O)[C@@H](O)[C@H]3O)cnc12)c1ccccc1 [Compound 35]    < 10 nM
C[C@H](Nc1nc(Cl)nn2c([C@@H]3O[C@H](COP(=O)(O)CP(=O)(O)O)[C@@H](O)[C@H]3O)cnc12)c1ccccc1F [Compound 32]    < 10 nM
O=P(O)(O)CP(=O)(O)OC[C@H]1O[C@@H](c2cnc3c(N4CCC[C@@H]4c4ccccc4)nc(Cl)nn23)[C@H](O)[C@@H]1O [Compound 31]    10 to 99 nM

In: Recombinant Human 5′-Nucleotidase (CD73) (Homo sapiens, UniProt P21589) / IC50 / O=P(O)(O)CP(=O)(O)OC[C@H]1O[C@@H](c2cnc3c(N4CCc5ccccc54)nc(Cl)nn23)[C@H](O)[C@@H]1O [Compound 18] : value?
Out: < 10 nM

In: Okay, and CN(c1nc(Cl)nn2c([C@@H]3O[C@H](COP(=O)(O)CP(=O)(O)O)[C@@H](O)[C@H]3O)cnc12)C1CCCC1 [Compound 8] ?
Out: < 10 nM

In: Okay, and O=P(O)(O)CP(=O)(O)OC[C@H]1O[C@@H](c2cnc3c(NC4CCCCC4)nc(Cl)nn23)[C@H](O)[C@@H]1O [Compound 20] ?
Out: < 10 nM

In: Okay, and N#CCCOP(=O)(CP(=O)(O)O)OC[C@H]1O[C@@H](c2cnc3c(NC4CCCC4)nc(Cl)nn23)[C@H](O)[C@@H]1O (stereo partly shown) [Compound 69] ?
Out: 10 to 99 nM

In: Okay, and CN(C)[C@H]1CC[C@H](Nc2nc(Cl)nn3c([C@@H]4O[C@H](COP(=O)(O)CP(=O)(O)O)[C@@H](O)[C@H]4O)cnc23)C1 [Compound 25] ?
Out: 10 to 99 nM

In: Okay, and O=P(O)(O)CP(=O)(O)OC[C@H]1O[C@H](c2cnc3c(NCc4ccccc4)ncnn23)[C@@H](F)[C@@H]1O [Compound 4] ?
Out: > 1000 nM

In: Okay, and C[C@H](Nc1nc(Cl)nn2c([C@@H]3O[C@H](COP(=O)(O)CP(=O)(O)O)[C@@H](O)[C@H]3O)cnc12)c1ccc(Cl)cc1 [Compound 54] ?
Out: < 10 nM

In: Okay, and O=P(O)(O)CP(=O)(O)OC[C@H]1O[C@@H](c2cnc3c(NC4CCCC4)ncnn23)[C@H](O)[C@@H]1O [Compound 1] ?
Out: < 10 nM

In: Okay, and O=P(O)(O)CP(=O)(O)OC[C@H]1O[C@@H](c2cnc3c(N4CCC(F)(F)CC4)nc(Cl)nn23)[C@H](O)[C@@H]1O [Compound 44] ?
Out: < 10 nM
